Measurement protocol: Toxicity in rat assessed as NOAEL for respiratory effect
Setup conditions: in vivo
Property name: NOAEL (mg/kg/day)
Numbers only, in mg/kg/day.

# input Quick one: NOAEL of `N#Cc1ccc(N2CCN([C@H]3C=C(c4cc5ncccc5c(=O)[nH]4)CC3)CC2)cc1` ?
# output 30

* * *

Please go through the items and note down their pIC50.
Test system: MDA-MB-436
Measurement protocol: Cytotoxicity against human MDA-MB-436 cells assessed as inhibition of cell viability incubated for 4 days by CellTiterGlo luminescence assay
Setup conditions: MDA-MB-436, 96 h
Give bare numbers, as −log10 of the molar value.

Examples with their reported pIC50 follow.
{"Entry smiles": "N#Cc1ccc(N2CCN([C@H]3C=C(c4cc5ncccc5c(=O)[nH]4)CC3)CC2)cc1", "Assayed target": "MDA-MB-436", "Numeric readout": 10.46}
{"Entry smiles": "N#Cc1ccc(N2CCN([C@H]3C=C(c4cc5c(N)cc(F)cc5c(=O)[nH]4)CC3)CC2)c(F)c1", "Assayed target": "MDA-MB-436", "Numeric readout": 10.22}
{"Entry smiles": "N#Cc1ccc(N2CCN(CCCc3cc4c(N)cc(F)cc4c(=O)[nH]3)CC2)cc1", "Assayed target": "MDA-MB-436", "Numeric readout": 10.82}
{"Entry smiles": "N#Cc1ccc(N2CCN(CCCc3cc4c(N)cccc4c(=O)[nH]3)CC2)cc1", "Assayed target": "MDA-MB-436", "Numeric readout": 10.70}

# map each compound to its pIC50
1. N#Cc1ccc(N2CCN([C@H]3C=C(c4cc5ncccc5c(=O)[nH]4)CC3)CC2)nc1
2. N#Cc1ccc(N2CCN([C@H]3C=C(c4cc5c(N)cc(F)cc5c(=O)[nH]4)CC3)CC2)cc1
3. N#Cc1ccc(N2CCN([C@H]3C=C(c4cc5ncc(F)cc5c(=O)[nH]4)CC3)CC2)cc1
4. N#Cc1ccc(N2CCN([C@H]3C=C(c4cc5c(N)cccc5c(=O)[nH]4)CC3)CC2)cc1

# output
1. 8.96
2. 10.14
3. 9.77
4. 9.96

# map each compound to its pIC50
1. Nc1cc(F)cc2c(=O)[nH]c(CCCN3CCN(c4ccc(F)cc4)CC3)cc12
2. CNC(=O)c1ccc(N2CCN(CCCc3cc4c(N)cc(F)cc4c(=O)[nH]3)CC2)cc1
3. NC(=O)c1ccc(N2CCN(CCCc3cc4c(N)cc(F)cc4c(=O)[nH]3)CC2)cc1

# output
1: 8.95; 2: 9.46; 3: 8.83
